Target: T1, soluble recombinant HLA-DR2 molecules (MHC class II HLA-DR2 protein) (human)
T1 construct: Soluble, empty protein from Drosophila S2 cells, captured on plates by antibody LB3.1; also called MHC class II DR2 protein; recombinant HLA-DR2 protein
Assay: competition ELISA on soluble HLA-DR2; competitor biotinylated MBP 85-99 (0.13 µM)
pIC50: −log10 of the molar value.
experimentalReadout: pIC50

binder	measuredResult
EEAAYKAAKAAAAAA [synthetic peptide #108]	< 3.00
EAAKYEAYKAAAAAA [synthetic peptide #100]	< 3.82
EAKAYEYAKAAAAAA [synthetic peptide #113]	< 3.00
EEAAYKAAKAAAAAA [synthetic peptide #111]	< 3.00
ENPVVHYFKNIVTPR (Analog of MBP 85-99 with F to Y at the position of MBP residue 91) [synthetic peptide #107]	> 6.00
AAEKYAEYKAAAAAA [synthetic peptide #104]	< 3.82
EEAAYAYKKAAAAAA [synthetic peptide #112]	< 3.00

Data credit: patent US20060020109A1
